System: human Nav1.2, Nav1.4, Nav1.5, Nav1.7
Assay: in vitro
Type: cell-based
Conditions: human; all Nav subtypes, Ipeak and Ilate; read-out: pI/EC50, range over Nav currents
property_name: EC50

The recorded EC50 with human Nav1.2, Nav1.4, Nav1.5, Nav1.7 for `C=C/C=C\CC[C@H]1O[C@H]2CC[C@@]3(C)O[C@H]4[C@@H](O)C[C@@]5(C)O[C@@H](CC/C=C(C)/C(C)=C/C=O)[C@@H](C)C[C@H]5O[C@@H]4C[C@@H]3O[C@@H]2CC[C@@]1(C)O` was 0.01 to 10 µM
